assayTarget: JCV major capsid protein VP1, wild type (John Cunningham virus (JCV)) (UniProt P03089)
Sequence (P03089 whole entry): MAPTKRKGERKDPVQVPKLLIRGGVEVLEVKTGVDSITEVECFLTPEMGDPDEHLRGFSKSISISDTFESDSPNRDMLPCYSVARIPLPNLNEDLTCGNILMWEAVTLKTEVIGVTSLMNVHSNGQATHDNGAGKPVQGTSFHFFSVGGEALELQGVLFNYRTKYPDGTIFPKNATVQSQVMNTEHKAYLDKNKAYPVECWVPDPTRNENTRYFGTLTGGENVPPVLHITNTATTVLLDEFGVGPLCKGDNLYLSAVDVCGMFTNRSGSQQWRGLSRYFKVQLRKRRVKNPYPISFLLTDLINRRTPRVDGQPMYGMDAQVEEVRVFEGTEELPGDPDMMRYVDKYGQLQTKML
testMethodNotes: cell-based or functional assay
Provide the recorded Neutralization of WT JCV: EC50 [pM] for the entries that follow.
Numbers only, in pM.

- 5G5 (antibody, V domains shown) VH: LVQLVESGGGLVKPGGSLRLSCTASGITFSDLYMSWIRQSPGKGLEWISYISTSGRTIYYTDSVKGRFTISRDNAKNSLFLQMNRLRADDTAVYYCAGDYYDNSGWDYWGRGTLVTVSS VL: NVVMTQSPLSLPVALGQPASISCRSGQSLVYSDGNTYLNWFQQRPGQSPRRLIYKVSDRDSGVPDRFSGSGSGTDFTLKISRVEAEDVGIYYCMQGTHWPRTFGQGTKVEIK: 0.4
- 6G5 (antibody, V domains shown) VH: QVQLVQSGAEVKKPGASVKVSCKASGYTFTNYDIHWVRQAAGQGLEWMGWTNPNSGNSDYAQKFQGRVSMTRDTSMRTMYMELNSLRSEDTAVYFCARKIWVGTTIFDYWGQGTLVTVSS VL: DIQMTQSPSSLSASVGDRVTIACRASQSIYRFLSWYQQKPGTAPKLLIFAVSSLQSGVPSRFSGSGSGTDFTLTISSLHPEDFAIYYCQQSDSPPLTFGGGTKVGIK: 3.1
- 8C3 (antibody, V domains shown) VH: QVQLVESGGGLVKPGGSLRLSCAASGFTFSDHYMSWIRQAPGKGLEWVSYISTSGRTIHYADSVKGRFTISRDNAKNSLYLQMNSLRAEDMAVYYCASDYYDNVGWDYWGQGTLVTVSS VL: DVVMTQSPLSLPVTLGQPASISCRSSQSLLYSDGNTYLNWFQQRPGQSPRRLIYKVSDRDSGVPDRFSGSGSGTDFTLKISRVEADDVGVYYCMQGAHWPRTFGQGTKVEIK: 14

Next up:
// 6H7 (antibody, V domains shown) VH: QVQLVESGGGLVKPGGSLRLSCAGSGFTFSDHYMSWIRQAPGKGLEWVSYISTSGRTIFYVDSVKGRFTISRDNAKNSLYLQMNSLRAEDMAVYYCASDYYDNVGWNYWGQGALVIVSS VL: DVVLTQSPLSLPVTLGQPASISCRSSQSLVYSDGNTYLNWFQQRPGQSPRRLIYKVSDRDFGVPDRFSGSGSGTDFTLKISRVEAEDVGIYYCMQGTHWPRTFGQGTKVEIK : Neutralization of WT JCV: EC50 [pM] value = 0.5

// data source = patent US20220356228A1
